meta.source: ChEMBL document CHEMBL1143181

biological target: Sucrase-isomaltase, intestinal (Rattus norvegicus, UniProt P23739)
Sequence (P23739 1-1013 limits assumed): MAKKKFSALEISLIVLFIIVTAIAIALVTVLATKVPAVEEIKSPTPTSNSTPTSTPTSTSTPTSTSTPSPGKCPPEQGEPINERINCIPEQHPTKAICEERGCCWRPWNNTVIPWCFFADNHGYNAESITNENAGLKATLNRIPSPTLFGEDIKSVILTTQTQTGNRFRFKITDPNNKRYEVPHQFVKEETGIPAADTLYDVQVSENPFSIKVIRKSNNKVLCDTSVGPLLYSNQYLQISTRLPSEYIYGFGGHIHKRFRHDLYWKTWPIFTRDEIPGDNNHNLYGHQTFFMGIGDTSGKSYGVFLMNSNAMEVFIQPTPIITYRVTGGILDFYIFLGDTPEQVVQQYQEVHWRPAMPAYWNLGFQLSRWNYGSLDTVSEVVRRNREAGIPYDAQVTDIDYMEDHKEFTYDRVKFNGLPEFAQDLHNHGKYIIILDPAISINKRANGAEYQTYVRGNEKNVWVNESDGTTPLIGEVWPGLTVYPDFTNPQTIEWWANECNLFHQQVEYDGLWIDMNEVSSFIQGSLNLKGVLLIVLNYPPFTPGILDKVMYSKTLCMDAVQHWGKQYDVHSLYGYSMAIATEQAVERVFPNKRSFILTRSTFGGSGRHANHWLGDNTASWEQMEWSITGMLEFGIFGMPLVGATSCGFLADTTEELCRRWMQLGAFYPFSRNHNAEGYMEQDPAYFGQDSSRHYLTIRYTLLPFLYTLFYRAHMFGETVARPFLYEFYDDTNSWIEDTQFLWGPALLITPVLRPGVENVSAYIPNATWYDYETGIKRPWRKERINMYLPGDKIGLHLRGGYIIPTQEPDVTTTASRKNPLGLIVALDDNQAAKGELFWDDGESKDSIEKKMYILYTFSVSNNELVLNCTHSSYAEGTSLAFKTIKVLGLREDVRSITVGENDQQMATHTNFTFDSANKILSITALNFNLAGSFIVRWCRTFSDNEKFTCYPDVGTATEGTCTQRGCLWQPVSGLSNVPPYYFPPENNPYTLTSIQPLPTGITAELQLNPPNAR
Sequence (P23739 1014-1841 limits assumed): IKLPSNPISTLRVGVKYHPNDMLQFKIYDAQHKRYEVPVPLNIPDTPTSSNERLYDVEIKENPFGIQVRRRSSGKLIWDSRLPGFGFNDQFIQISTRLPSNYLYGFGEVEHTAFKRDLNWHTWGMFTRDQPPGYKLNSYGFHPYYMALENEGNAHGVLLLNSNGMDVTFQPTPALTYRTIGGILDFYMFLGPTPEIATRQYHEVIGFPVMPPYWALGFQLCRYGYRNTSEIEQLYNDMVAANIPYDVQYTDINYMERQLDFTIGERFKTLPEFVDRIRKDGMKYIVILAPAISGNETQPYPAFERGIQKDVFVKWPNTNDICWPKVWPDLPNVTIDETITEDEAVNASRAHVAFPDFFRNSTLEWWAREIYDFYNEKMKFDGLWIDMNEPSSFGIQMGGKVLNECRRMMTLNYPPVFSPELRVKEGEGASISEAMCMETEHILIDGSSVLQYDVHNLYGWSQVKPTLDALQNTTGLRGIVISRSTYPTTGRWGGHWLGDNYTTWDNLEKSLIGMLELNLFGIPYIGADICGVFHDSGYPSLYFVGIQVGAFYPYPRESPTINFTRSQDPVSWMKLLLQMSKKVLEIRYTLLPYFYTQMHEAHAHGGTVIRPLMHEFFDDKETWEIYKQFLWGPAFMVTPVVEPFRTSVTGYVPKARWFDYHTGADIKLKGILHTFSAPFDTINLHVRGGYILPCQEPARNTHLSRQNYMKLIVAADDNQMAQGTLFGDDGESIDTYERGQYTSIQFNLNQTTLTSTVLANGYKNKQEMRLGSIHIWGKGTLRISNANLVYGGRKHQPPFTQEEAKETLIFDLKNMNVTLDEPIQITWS
parameter: pKi
Quick note: pKi means taking -log10 of the concentration in moles per liter.

Give the measured pKi of "Nc1c(O)cccc1O" .
5.38
